The entries below come with measured MIC values attached.
Tested on: Enterococcus faecium
MEASUREMENT_DESCRIPTION: Antibacterial activity against vancomycin-sensitive Enterococcus faecium 12-3 after 18 hrs by CLSI broth microdilution method
Format: functional
SETUP_CONDITIONS: 12-3, 18 h

{"MOLECULE": "CCC(C)NC(=N)c1ccc2cc(-c3cncc(-c4cc5ccc(C(=N)NC(C)CC)cc5[nH]4)c3)[nH]c2c1 (configuration not stated)", "RESULT_UNITS": "µg/mL", "REL": ">", "MIC": 64}
{"MOLECULE": "CNC(=N)c1ccc2cc(-c3cncc(-c4cc5ccc(C(=N)NC)cc5[nH]4)c3)[nH]c2c1", "RESULT_UNITS": "µg/mL", "REL": ">", "MIC": 64}
{"MOLECULE": "CN(C)C(=N)c1ccc2cc(-c3ccc4cc(-c5cc6ccc(C(=N)N(C)C)cc6[nH]5)ccc4c3)[nH]c2c1", "RESULT_UNITS": "µg/mL", "REL": "=", "MIC": 16}
{"MOLECULE": "CCC(CC)NC(=N)c1ccc2cc(-c3ccc(-c4cc5ccc(C(=N)NC(CC)CC)cc5[nH]4)cc3)[nH]c2c1", "RESULT_UNITS": "µg/mL", "REL": "=", "MIC": 2}
{"MOLECULE": "CN(C)C(=N)c1ccc2cc(-c3ccc4ccc(-c5cc6ccc(C(=N)N(C)C)cc6[nH]5)cc4c3)[nH]c2c1", "RESULT_UNITS": "µg/mL", "REL": "=", "MIC": 32}
{"MOLECULE": "CN(C)CCCNC(=N)c1ccc2cc(-c3ccc(-c4cc5ccc(C(=N)NCCCN(C)C)cc5[nH]4)cc3)[nH]c2c1", "RESULT_UNITS": "µg/mL", "REL": "=", "MIC": 8}
{"MOLECULE": "c1cc2cc(-c3ccc(-c4cc5ccc(C6=NCCCN6)cc5[nH]4)cc3)[nH]c2cc1C1=NCCCN1", "RESULT_UNITS": "µg/mL", "REL": "=", "MIC": 1}
{"MOLECULE": "N=C(c1ccc2cc(-c3ccc(-c4cc5ccc(C(=N)N6CCOCC6)cc5[nH]4)cc3)[nH]c2c1)N1CCOCC1", "RESULT_UNITS": "µg/mL", "REL": "=", "MIC": 4}
{"MOLECULE": "CN(C)C(=N)c1ccc2cc(-c3cncc(-c4cc5ccc(C(=N)N(C)C)cc5[nH]4)c3)[nH]c2c1", "RESULT_UNITS": "µg/mL", "REL": "=", "MIC": 2}
{"MOLECULE": "N=C(c1ccc2cc(-c3ccc(-c4cc5ccc(C(=N)N6CC=CC6)cc5[nH]4)cc3)[nH]c2c1)N1CC=CC1", "RESULT_UNITS": "µg/mL", "REL": "=", "MIC": 16}
{"MOLECULE": "C[C@H]1COc2c(N3CCN(C)CC3)c(F)cc3c(=O)c(C(=O)O)cn1c23.C[C@H]1COc2c(N3CCN(C)CC3)c(F)cc3c(=O)c(C(=O)O)cn1c23.O", "RESULT_UNITS": "µg/mL", "REL": "=", "MIC": 32}
{"MOLECULE": "CCC(C)NC(=N)c1ccc2cc(-c3ccc(-c4cc5ccc(C(=N)NC(C)CC)cc5[nH]4)cc3)[nH]c2c1 (configuration not stated)", "RESULT_UNITS": "µg/mL", "REL": "=", "MIC": 1}
{"MOLECULE": "COCCNC(=N)c1ccc2cc(-c3ccc(-c4cc5ccc(C(=N)NCCOC)cc5[nH]4)cc3)[nH]c2c1", "RESULT_UNITS": "µg/mL", "REL": "=", "MIC": 0.5}
{"MOLECULE": "CN(C)C(=N)c1ccc2cc(-c3ccc(Oc4ccc(-c5cc6ccc(C(=N)N(C)C)cc6[nH]5)cc4)cc3)[nH]c2c1", "RESULT_UNITS": "µg/mL", "REL": "=", "MIC": 2}
{"MOLECULE": "CN(C)C(=N)c1ccc2cc(-c3cnc(-c4cc5ccc(C(=N)N(C)C)cc5[nH]4)cn3)[nH]c2c1", "RESULT_UNITS": "µg/mL", "REL": "=", "MIC": 4}
{"MOLECULE": "CN(C)CCNC(=N)c1ccc2cc(-c3ccc(-c4cc5ccc(C(=N)NCCN(C)C)cc5[nH]4)cc3)[nH]c2c1", "RESULT_UNITS": "µg/mL", "REL": "=", "MIC": 8}
{"MOLECULE": "CC(C)NC(=N)c1ccc2cc(-c3cncc(-c4cc5ccc(C(=N)NC(C)C)cc5[nH]4)c3)[nH]c2c1", "RESULT_UNITS": "µg/mL", "REL": ">", "MIC": 64}
{"MOLECULE": "CN1CCC2(CC1)CCN(C(=N)c1ccc3cc(-c4ccc(-c5cc6ccc(C(=N)N7CCC8(CCN(C)CC8)C7)cc6[nH]5)cc4)[nH]c3c1)C2", "RESULT_UNITS": "µg/mL", "REL": "=", "MIC": 16}
{"MOLECULE": "CN1CCN(C(=N)c2ccc3cc(-c4ccc(-c5cc6ccc(C(=N)N7CCN(C)CC7)cc6[nH]5)cc4)[nH]c3c2)CC1", "RESULT_UNITS": "µg/mL", "REL": "=", "MIC": 8}
{"MOLECULE": "CN(C)C(=N)c1ccc2cc(-c3ccc(-c4cc5ccc(C(=N)N(C)C)cc5[nH]4)nc3)[nH]c2c1", "RESULT_UNITS": "µg/mL", "REL": "=", "MIC": 4}
{"MOLECULE": "CCN(C)C(=N)c1ccc2cc(-c3ccc(-c4cc5ccc(C(=N)N(C)CC)cc5[nH]4)cc3)[nH]c2c1", "RESULT_UNITS": "µg/mL", "REL": "=", "MIC": 1}
{"MOLECULE": "COCCNC(=N)c1ccc2cc(-c3cncc(-c4cc5ccc(C(=N)NCCOC)cc5[nH]4)c3)[nH]c2c1", "RESULT_UNITS": "µg/mL", "REL": ">", "MIC": 64}
{"MOLECULE": "CN(C)C(=N)c1ccc2cc(-c3ccc(-c4cc5ccc(C(=N)N(C)C)cc5[nH]4)cc3)[nH]c2c1", "RESULT_UNITS": "µg/mL", "REL": "=", "MIC": 1}
{"MOLECULE": "CNC(=N)c1ccc2cc(-c3ccc(-c4cc5ccc(C(=N)NC)cc5[nH]4)cc3)[nH]c2c1", "RESULT_UNITS": "µg/mL", "REL": "=", "MIC": 2}
{"MOLECULE": "CN(C)C(=N)c1ccc2cc(-c3cccc(-c4cc5ccc(C(=N)N(C)C)cc5[nH]4)c3)[nH]c2c1", "RESULT_UNITS": "µg/mL", "REL": ">", "MIC": 128}
{"MOLECULE": "CC(C)NC(=N)c1ccc2cc(-c3ccc(-c4cc5ccc(C(=N)NC(C)C)cc5[nH]4)cc3)[nH]c2c1", "RESULT_UNITS": "µg/mL", "REL": "=", "MIC": 0.25}
{"MOLECULE": "N=C(c1ccc2cc(-c3ccc(-c4cc5ccc(C(=N)N6CCCC6)cc5[nH]4)cc3)[nH]c2c1)N1CCCC1", "RESULT_UNITS": "µg/mL", "REL": "=", "MIC": 4}
{"MOLECULE": "N=C(c1ccc2cc(-c3ccc(-c4cc5ccc(C(=N)N6CCC(N7CCCC7)CC6)cc5[nH]4)cc3)[nH]c2c1)N1CCC(N2CCCC2)CC1", "RESULT_UNITS": "µg/mL", "REL": "=", "MIC": 16}
{"MOLECULE": "N=C(c1ccc2cc(-c3ccc(-c4cc5ccc(C(=N)N6CC=CCC6)cc5[nH]4)cc3)[nH]c2c1)N1CC=CCC1", "RESULT_UNITS": "µg/mL", "REL": "=", "MIC": 4}
{"MOLECULE": "CCNC(=N)c1ccc2cc(-c3ccc(-c4cc5ccc(C(=N)NCC)cc5[nH]4)cc3)[nH]c2c1", "RESULT_UNITS": "µg/mL", "REL": "=", "MIC": 2}
{"MOLECULE": "N=C(c1ccc2cc(-c3ccc(-c4cc5ccc(C(=N)N6CCC6)cc5[nH]4)cc3)[nH]c2c1)N1CCC1", "RESULT_UNITS": "µg/mL", "REL": "=", "MIC": 2}
{"MOLECULE": "CN(C)C(=N)c1ccc2cc(-c3cnc(-c4cc5ccc(C(=N)N(C)C)cc5[nH]4)s3)[nH]c2c1", "RESULT_UNITS": "µg/mL", "REL": "=", "MIC": 2}
